Reported melting point values are given for each entry in this list.

Worked examples follow.
                           smiles_structure  measured_attribute  observed_value
0  CC(C)(C)OC(=O)Nc1cc(N2CCOCC2)c(C#Cc2ccccc2)cc1N       melting point   174 to 176 °C
1  O=C(N1CCCC1)n1c(CN2CCN(c3ccccn3)CC2)nc2ccccc21       melting point   120 to 121 °C

## Task Look up melting point: Cc1cc(-c2cccc(C(F)(F)F)c2)c2ncc(OCC(F)(F)F)nc2c1
## Result 114 to 117 °C

## Task Follow-up entry: CSc1onc(-c2ccccc2)c1-c1ccccc1
## Result 83 to 86 °C

## Task Follow-up entry: CC(C)(C)NC(=O)CCCCl
## Result 62.5 to 64 °C

* * *

MEASURED ATTRIBUTE: melting point

Worked examples follow.
>>> df
                                   compound  observed_value
0  OCCNCc1nnc2n1-c1ccc(Cl)cc1C(c1ccccc1)=NC2   162 to 164 °C
1  CN1CCC(c2c[nH]c3ccc(OS(=O)(=O)c4ccccc4)cc23)CC1   192 to 194 °C
2      O=[N+]([O-])c1ccccc1OCc1ccc2ccccc2n1   121 to 122 °C
3         Cc1cc(C(=O)c2ccc(Br)cc2)c(O)cc1Cl   238 to 239 °C
4  CC(CCc1ccccc1)Nc1nc(Cl)nc(NS(C)(=O)=O)n1 (stereo unspecified)          143 °C

Could you now consider this next compound?
## Task Look up melting point: CCCSc1ccc2cc[nH]c2c1
## Result 54 to 55 °C

* * *

MEASURED ATTRIBUTE: melting point

>>> print(df.to_string())
                                   molecule  observed_value
0    c1ccc(N2CCN(CCc3cc4ccccc4[nH]3)CC2)cc1   184 to 186 °C
1  CCCC1Sc2c(cc(OC)c(Cl)c2Cl)C1O (stereo not given)   119 to 120 °C
2       O=C(O)c1ccc2c(c1)CCc1c(Cl)cccc1C2=O   258 to 260 °C
3        CC1(C)Cc2cc(Cl)cc(Cl)c2C=[N+]1[O-]     92 to 94 °C
4  Cc1noc(NS(=O)(=O)c2c(Cc3ccc4c(c3)OCO4)sc3ccccc23)c1Cl   178 to 181 °C
5  COC(=O)C(CCSC)N(C(=O)OC(C)(C)C)C(=O)c1ccc(N)c(OC)c1 (stereo not given)   163 to 165 °C

## Task Look up melting point: O=S(=O)(Oc1ccc2ccc(OS(=O)(=O)C(F)(F)F)cc2c1)C(F)(F)F
## Result 60 to 62 °C

## Task Follow-up entry: O=S(=O)(Nc1cccc(OCc2ccc3ccccc3n2)c1)C(F)(F)F
## Result 144 to 146 °C

## Task Follow-up entry: Cc1ccc(NC(=O)c2nc[nH]c2C)cc1Cl
## Result 215 to 217 °C

## Task Follow-up entry: CCCCOC(=O)N1CCNCC1
## Result 98 °C

## Task Follow-up entry: CC(C)COC(=O)/C=C/C1NC(=O)CN1C(=O)OCc1ccccc1 (stereo not given)
## Result 97 to 100 °C

## Task Follow-up entry: NC(=O)CC(=O)NCCS
## Result 100 °C

## Task Follow-up entry: CCCCCNC(=S)NC(Cc1ccc(OC)cc1)=Nc1ccccc1
## Result 125 to 126 °C

## Task Follow-up entry: O=C1C(=O)N(CCCCN2CCN(C(c3ccccc3)c3ccccc3)CC2)c2ccccc21
## Result 127 to 129 °C

## Task Follow-up entry: Cc1cc(C)c(C(=O)c2cccc(-n3ccnc3)c2)c(C)c1
## Result 134 to 136 °C
